Cited source for all entries: the supplement of paper PMC4862054

tested on: CAL-51; experiment: normalised viability (% of control), CellTiter-Blue; higher = more viable cells (about 100 = DMSO control); conditions: incubation time: 72 h
Catalogue of normalised viability values
Put down the number, then write its unit next to it.

Would you please look over these solved cases?
- compound: "COc1cc([C@@H]2c3cc4c(cc3[C@@H](O[C@@H]3O[C@@H]5CO[C@@H](C)O[C@H]5[C@H](O)[C@H]3O)[C@H]3COC(=O)[C@H]23)OCO4)cc(OC)c1O [Etoposide] (300 nM)"
  val: "59%"
- compound: "C#Cc1cccc(Nc2ncnc3cc(OCCOC)c(OCCOC)cc23)c1 [Erlotinib] (300 nM)"
  val: "96.4%"
- compound: "O=C1CCC(N2C(=O)c3ccccc3C2=O)C(=O)N1 (stereo not drawn) [Thalidomide] (300 nM)"
  val: "88.4%"
- compound: "C=C(c1ccc(C(=O)O)cc1)c1cc2c(cc1C)C(C)(C)CCC2(C)C [Bexarotene] (300 nM)"
  val: "92.8%"
- compound: "O=P1(NCCCl)OCCCN1CCCl (stereo not drawn) [Ifosfamide] (300 nM)"
  val: "108%"

Which value of normalised viability has been reported for CNCc1ccc(-c2[nH]c3cc(F)cc4c3c2CCNC4=O)cc1 [Rucaparib] (300 nM) in the records?
110%

Can you handle Oc1nc(-c2ccc(C(F)(F)F)cc2)nc2c1CSCC2 [XAV-939] (300 nM) next?
99.3%

What about this compound? CN(N=O)C(=O)N[C@@H](C=O)[C@@H](O)[C@H](O)[C@H](O)CO [Streptozocin] (300 nM)
108%
